The entries below come with measured IC50 values attached.
biological target: Substance-P receptor (Homo sapiens, UniProt P25103); assay: Compound was tested in vitro for its Tachykinin receptor 1 affinity by the displacement of [125I]Bolton-Hunter substance p from human IM-9 cells; assay type: cell-based
Sequence (P25103 whole entry): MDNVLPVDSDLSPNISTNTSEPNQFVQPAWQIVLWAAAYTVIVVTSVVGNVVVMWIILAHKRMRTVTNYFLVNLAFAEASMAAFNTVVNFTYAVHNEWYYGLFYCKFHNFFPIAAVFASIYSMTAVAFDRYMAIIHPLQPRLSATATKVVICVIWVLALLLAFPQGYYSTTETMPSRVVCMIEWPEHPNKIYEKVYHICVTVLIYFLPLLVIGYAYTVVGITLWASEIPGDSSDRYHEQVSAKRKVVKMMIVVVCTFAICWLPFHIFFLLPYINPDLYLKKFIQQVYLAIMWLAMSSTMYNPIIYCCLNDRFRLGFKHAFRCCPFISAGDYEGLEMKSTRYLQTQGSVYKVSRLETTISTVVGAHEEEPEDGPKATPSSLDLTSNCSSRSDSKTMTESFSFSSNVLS

smiles notation	IC50
COc1ccccc1CN[C@H]1C2CC[N+](CC(N)=O)(CC2)[C@H]1C(c1ccccc1)c1ccccc1	1.3 nM
C=CC[N+]12CCC(CC1)[C@H](NCc1ccccc1OC)[C@@H]2C(c1ccccc1)c1ccccc1	22.3 nM
COc1ccccc1CN[C@H]1C2CC[N+](Cc3ccccc3)(CC2)[C@H]1C(c1ccccc1)c1ccccc1	332 nM
CCOC(=O)C[N+]12CCC(CC1)[C@H](NCc1ccccc1OC)[C@@H]2C(c1ccccc1)c1ccccc1	32.7 nM
COc1ccccc1CN[C@H]1C2CC[N+](C)(CC2)[C@H]1C(c1ccccc1)c1ccccc1	12.2 nM
